This collection of values is drawn from paper PMC7156724.

assay: In vivo pharmacokinetics study, rat; set-up: species or system SD rat; conditions: male, SD, plasma, iv, 1 mg/kg, IV bolus, 5 min, individual animals, LLOQ 1.00 ng/mL, read-out: Plasma Conc.
Outcome measure: concentration at 5 min (ng/mL)
Respond with the bare value in ng/mL.

Prompt line: So what's the measured concentration at 5 min for this one? Cc1nnn(C)c1-c1cnc2c3c4cnn(C)c4ccc3n([C@H](c3ccccc3)C3CCOCC3)c2c1
Response line: 392

---

experiment: Metabolic stability assay, mouse liver microsomes; settings: mouse, liver microsomes, pH 7.4
Outcome measure: CLint scaled at 1 µM (mL/min/kg)
Respond with the bare value in mL/min/kg.

Prompt line: So what's the measured CLint scaled at 1 µM for this one? Cc1nnn(C)c1-c1cnc2c3c4cnn(C)c4ccc3n([C@H](c3ccccc3)C3CCOCC3)c2c1
Response line: 139
